B1: unnamed (parent)
chain 1: ATCYCRTGRCATRESLSGVCEISGRLYRLCCR
chain 2: MKRARPSEDTFNPVYPYDTETGPPTVPFLTPPFVSPNGFQESPPGVLSLRLSEPLVTSNGMLALKMGNGLSLDEAGNLTSQNVTTVSPPLKKTKSNINLEISAPLTVTSEALTVAAAAPLMVAGNTLTMQSQAPLTVHDSKLSIATQGPLTVSEGKLALQTSGPLTTTDSSTLTITASPPLTTATGSLGIDLKEPIYTQNGKLGLKYGAPLHVTDDLNTLTVATGPGVTINNTSLQTKVTGALGFDSQGNMQLNVAGGLRIDSQNRRLILDVSYPFDAQNQLNLRLGQGPLFINSAHNLDINYNKGLYLFTASNNSKKLEVNLSTAKGLMFDATAIAINAGDGLEFGSPNAPNTNPLKTKIGHGLEFDSNKAMVPKLGTGLSFDSTGAITVGNKNNDKLTLWTTPAPSPNCRLNAEKDAKLTLVLTKCGSQILATVSVLAVKGSLAPISGTVQSAHLIIRFDENGVLLNNSFLDPEYWNFRNGDLTEGTAYTNAVGFMPNLSAYPKSHGKTAKSNIVSQVYLNGDKTKPVTLTITLNGTQETGDTTPSAYSMSFSWDWSGHNYINEIFATSSYTFSYIAQE
chain 3: MRRAAMYEEGPPPSYESVVSAAPVAAALGSPFDAPLDPPFVPPRYLRPTGGRNSIRYSELAPLFDTTRVYLVDNKSTDVASLNYQNDHSNFLTTVIQNNDYSPGEASTQTINLDDRSHWGGDLKTILHTNMPNVNEFMFTNKFKARVMVSRLPTKDNQVELKYEWVEFTLPEGNYSETMTIDLMNNAIVEHYLKVGRQNGVLESDIGVKFDTRNFRLGFDPVTGLVMPGVYTNEAFHPDIILLPGCGVDFTHSRLSNLLGIRKRQPFQEGFRITYDDLEGGNIPALLDVDAYQASLKDDTEQGGGGAGGSNSSGSGAEENSNAAAAAMQPVEDMNDHAIRGDTFATRAEEKRAEAEAAAEAAAPAAQPEVEKPQKKPVIKPLTEDSKKRSYNLISNDSTFTQYRSWYLAYNYGDPQTGIRSWTLLCTPDVTCGSEQVYWSLPDMMQDPVTFRSTRQISNFPVVGAELLPVHSKSFYNDQAVYSQLIRQFTSLTHVFNRFPENQILARPPAPTITTVSENVPALTDHGTLPLRNSIGGVQRVTITDARRRTCPYVYKALGIVSPRVLSSRTF

# Variants of: B1
# ASSAY: SPR
# COND: with partner chain of the complex shown; defensin at 333 nM; immobilized rPenton (2115 RU); peak of sensorgram at end of association (about 180 sec); read off a plot
READOUT_TYPE: response (RU)
Give the value, in units of RU, as a plain number.

-- ask Return value of response for input chain 1 ATCYCRTGRCATRESLSGVCEISGRAYRLCCR [chain 1 L26A] , no commentary.
-- reply 200

-- ask Return value of response for input chain 1 ATCYCRTGRCATRESLSGVCAISGRLYRLCCR [chain 1 E21A] , no commentary.
-- reply 480

-- ask Return value of response for input chain 1 ATCYCRTGRCAARESLSGVCEISGRLYRLCCR [chain 1 T12A] , no commentary.
-- reply 630

-- ask Return value of response for input chain 1 ATCYCRAGRCATRESLSGVCEISGRLYRLCCR [chain 1 T7A] , no commentary.
-- reply 690

-- ask Return value of response for input chain 1 ATCYCRTGRCATRESLSGVCEASGRLYRLCCR [chain 1 I22A] , no commentary.
-- reply 490

-- ask Return value of response for input chain 1 ATCYCRTGRCATRESLSGACEISGRLYRLCCR [chain 1 V19A] , no commentary.
-- reply 260

-- ask Return value of response for input chain 1 ATCYCRTGRCATRESLSGVCEISGRLYALCCR [chain 1 R28A] , no commentary.
-- reply 340
